Catalogue of compounds with associated inhibition of SARS-CoV-2 cytopathic effect
- Test system: Vero E6 infected with SARS-CoV-2
- assay: inhibition of SARS-CoV-2 cytopathic effect; higher = more antiviral protection, active = above 15
- particulars: 1 nM; 48 h
The answer is to be given in %; state only the numeric part.

Data point: COc1cc2c(NC3CCN(CC4CCCCC4)CC3)nc(N3CCCN(C(C)C)CC3)nc2cc1OCCCN1CCCCC1 ; inhibition of SARS-CoV-2 cytopathic effect = 0.74

Data point: CCOc1cc2ncc(C#N)c(Nc3ccc(F)c(Cl)c3)c2cc1NC(=O)/C=C/CN(C)C ; inhibition of SARS-CoV-2 cytopathic effect = -2.05

Data point: CNc1nc(-c2ccc3c(N)n[nH]c3c2)cc(N2C[C@@H](C(=O)NC3CCCCC3)CC[C@H]2C)n1 ; inhibition of SARS-CoV-2 cytopathic effect = 2.6

Data point: COC(=O)Nc1ccc(-c2nc(N3CCOCC3)c3cnn(C4CCN(C(=O)OC)CC4)c3n2)cc1 ; inhibition of SARS-CoV-2 cytopathic effect = 1.39

Data point: CCCCCCCCCCCCCCCC(=O)OC(C)C [isopropyl-palmitate] ; inhibition of SARS-CoV-2 cytopathic effect = -1.17

Data point: CN(c1ccc(NC(=O)Nc2ccccc2)cc1)S(=O)(=O)c1cnn(-c2ccc(F)cc2)c1 ; inhibition of SARS-CoV-2 cytopathic effect = 2.37

Data point: CCCCc1nc(Cl)c(CO)n1Cc1ccc(-c2ccccc2-c2nnn[nH]2)cc1 ; inhibition of SARS-CoV-2 cytopathic effect = 0.46

Data point: C=CCCCCCCCCC(=O)[O][Zn][O]C(=O)CCCCCCCCC=C [zinc-undecylenate] ; inhibition of SARS-CoV-2 cytopathic effect = 0.73

---
Data point: CCCCOC(=O)c1ccc(N)cc1 ; inhibition of SARS-CoV-2 cytopathic effect = 3.03

###

- Tested on: Vero E6 infected with SARS-CoV-2
- assay: inhibition of SARS-CoV-2 cytopathic effect; higher = more antiviral protection, active = above 15
- particulars: 833.33 nM; 48 h
Catalogue of compounds with associated inhibition of SARS-CoV-2 cytopathic effect
The answer is to be given in %; state only the numeric part.

Data point: NC1=N[C@@](c2cccc(-c3cncnc3)c2)(c2ccnc(C(F)F)c2)c2cccc(F)c21 ; inhibition of SARS-CoV-2 cytopathic effect = -0.56

Data point: C[C@@H]1CC[C@H]2[C@@H](C)C(=O)O[C@@H]3O[C@@]4(C)CC[C@@H]1[C@]32OO4 [artemisinin] ; inhibition of SARS-CoV-2 cytopathic effect = 3.83

Data point: O=C(N[C@H]1CN2CCC1CC2)c1ccc(Cl)cc1 ; inhibition of SARS-CoV-2 cytopathic effect = 0.86

Data point: NC(=O)C1=CN([C@@H]2O[C@H](COP(=O)(O)OP(=O)(O)OC[C@H]3O[C@@H](n4cnc5c(N)ncnc54)[C@H](O)[C@@H]3O)[C@@H](O)[C@H]2O)C=CC1 [coenzyme-I] ; inhibition of SARS-CoV-2 cytopathic effect = 1.03

---
Data point: Cc1cc(/C=C/c2ccc3cc(N(C)C)ccc3[n+]2C)c(C)n1-c1ccccc1 [pyrvinium-pamoate] ; inhibition of SARS-CoV-2 cytopathic effect = -2.46

Data point: O=C(c1ccc(OCCN2CCCCC2)cc1)c1c(-c2ccc(O)cc2)sc2cc(O)ccc12 [raloxifene] ; inhibition of SARS-CoV-2 cytopathic effect = 4.77

Data point: Cc1ccc(S(=O)(=O)NC(=O)NN2CCCCCC2)cc1 [tolazamide] ; inhibition of SARS-CoV-2 cytopathic effect = 1.43

Data point: CCc1cccc(N(C)C(=N)Nc2cccc3ccccc23)c1 [aptiganel] ; inhibition of SARS-CoV-2 cytopathic effect = -2.33

Data point: CCN1CCCC1=O [1-ethyl-2-pyrrolidone] ; inhibition of SARS-CoV-2 cytopathic effect = -0.7

Data point: CN(C)C(=O)N[C@H]1CC[C@H](CCN2CCN(c3cccc(Cl)c3Cl)CC2)CC1 [cariprazine] ; inhibition of SARS-CoV-2 cytopathic effect = 3.01

Data point: CN(C)CC[C@H](CSc1ccccc1)Nc1ccc(S(=O)(=O)NC(=O)c2ccc(N3CCN(Cc4ccccc4-c4ccc(Cl)cc4)CC3)cc2)cc1[N+](=O)[O-] ; inhibition of SARS-CoV-2 cytopathic effect = -16.3

Data point: CC(O)COC[C@H]1O[C@@H]2O[C@H]3[C@H](O)[C@@H](O)[C@@H](O[C@H]4[C@H](O)[C@@H](O)[C@@H](O[C@H]5[C@H](O)[C@@H](O)[C@@H](O[C@H]6[C@H](O)[C@@H](O)[C@@H](O[C@H]7[C@H](O)[C@@H](O)[C@@H](O[C@H]8[C@H](O)[C@@H](O)[C@@H](O[C@H]1[C@H](O)[C@H]2O)O[C@@H]8COCC(C)O)O[C@@H]7COCC(C)O)O[C@@H]6COCC(C)O)O[C@@H]5COCC(C)O)O[C@@H]4COCC(C)O)O[C@@H]3COCC(C)O (stereo partly drawn) [hydroxypropyl-beta-cyclodextrin] ; inhibition of SARS-CoV-2 cytopathic effect = 0.29

Data point: CC(C)C(N)=O [isobutyramide] ; inhibition of SARS-CoV-2 cytopathic effect = 2.44

Data point: COc1cccc(Nc2ncnn3ccc(CN4CC[C@@H](N)[C@H](O)C4)c23)c1 ; inhibition of SARS-CoV-2 cytopathic effect = -16.4

Data point: C[C@@]1(O)[C@H](O)[C@@H](CO)O[C@H]1n1cnc2c(NC3CCCC3)nc(Cl)nc21 ; inhibition of SARS-CoV-2 cytopathic effect = 0.53

###

- Test system: Vero E6 infected with SARS-CoV-2
- assay: inhibition of SARS-CoV-2 cytopathic effect; higher = more antiviral protection, active = above 15
- particulars: 8.33 nM; 48 h
Catalogue of compounds with associated inhibition of SARS-CoV-2 cytopathic effect
The answer is to be given in %; state only the numeric part.

Data point: CNC(=O)O[C@H]1COc2ccc(N3CCN(C4COC4)CC3)cc2[C@@H]1NC(=O)c1ccc(F)cc1 ; inhibition of SARS-CoV-2 cytopathic effect = -0.75

Data point: CCOc1c(N2CCOCC2)cnn(C)c1=O ; inhibition of SARS-CoV-2 cytopathic effect = -6.29

Data point: COc1cc(O)c2c(c1)C(=O)c1cc(C)cc(O)c1C2=O ; inhibition of SARS-CoV-2 cytopathic effect = 1.62

Data point: C[C@H](Nc1cc(-c2cnn(C)c2)cc(Nc2cnccn2)n1)c1ccc(F)cc1 ; inhibition of SARS-CoV-2 cytopathic effect = 1.68

Data point: CC[C@H](CC#N)OC(=O)N[C@@H](C)c1cccc(NC(=O)Nc2ccc(-c3cnco3)c(OC)c2)c1 ; inhibition of SARS-CoV-2 cytopathic effect = 4.56

Data point: Cl[C@H]1[C@H](Cl)[C@@H](Cl)[C@@H](Cl)[C@H](Cl)[C@H]1Cl ; inhibition of SARS-CoV-2 cytopathic effect = -1.41

Data point: Cc1c(NC(=O)c2cccnc2)c(=O)n(-c2ccccc2)n1C ; inhibition of SARS-CoV-2 cytopathic effect = 0.87

Data point: CN[C@@H](C)C(=O)N[C@H]1CCCC[C@H]2CC[C@@H](C(=O)N[C@@H](c3ccccc3)c3cn(CCCCc4ccc(CCCCn5cc([C@@H](NC(=O)[C@@H]6CC[C@@H]7CCCC[C@H](NC(=O)[C@H](C)NC)C(=O)N76)c6ccccc6)nn5)cc4)nn3)N2C1=O ; inhibition of SARS-CoV-2 cytopathic effect = -0.21

###

- Tested on: Vero E6 infected with SARS-CoV-2
- assay: inhibition of SARS-CoV-2 cytopathic effect; higher = more antiviral protection, active = above 15
- particulars: 833.33 nM; 48 h
Catalogue of compounds with associated inhibition of SARS-CoV-2 cytopathic effect
The answer is to be given in %; state only the numeric part.

Below are worked cases with known answers.
The value of inhibition of SARS-CoV-2 cytopathic effect recorded for FC(F)(F)c1cc(NC(=S)Nc2ccc(Br)cc2-c2nnn[nH]2)cc(C(F)(F)F)c1 when tested on Vero E6 infected with SARS-CoV-2 reads 3.36

The value of inhibition of SARS-CoV-2 cytopathic effect recorded for O=C(Nc1ccc(S(=O)(=O)Nc2nccs2)cc1)C(c1ccccc1)c1ccccc1 when tested on Vero E6 infected with SARS-CoV-2 reads 2.29

The value of inhibition of SARS-CoV-2 cytopathic effect recorded for Cc1c(Cl)cccc1S(=O)(=O)Nc1nc(CC(=O)N2CCN(C)CC2)cs1 when tested on Vero E6 infected with SARS-CoV-2 reads 3.23

The value of inhibition of SARS-CoV-2 cytopathic effect recorded for COc1cc(C(=O)NC2CCCNC2)cc(OC)c1OC (centres undefined) [troxipide] when tested on Vero E6 infected with SARS-CoV-2 reads -0.19

The value of inhibition of SARS-CoV-2 cytopathic effect recorded for CCCn1c(=O)[nH]c2nc(-c3ccc(S(=O)(=O)O)cc3)[nH]c2c1=O when tested on Vero E6 infected with SARS-CoV-2 reads 0.97

The value of inhibition of SARS-CoV-2 cytopathic effect recorded for Cc1ccc([N+](=O)[O-])cc1S(=O)(=O)N(C)C when tested on Vero E6 infected with SARS-CoV-2 reads -0.5

---
The value of inhibition of SARS-CoV-2 cytopathic effect recorded for NC/C(=C/F)CCc1ccc(F)cc1 [mofegiline] when tested on Vero E6 infected with SARS-CoV-2 reads -1.58
